Experiment: Biodistribution in NMRI mouse spleen/pancreas assessed per gram of tissue at 3.7 MBq/mL, iv after 2 mins by gamma counting
Type: ADME, organism-based
Conditions: in vivo
// label = yes (1) if Drug uptake is not less than 6%, otherwise no (0)

[11CH3]Nc1ccc(-c2nc3ccc(O)cc3s2)cc1; no (0)

Task: Test whether the molecule "CN(C)c1ccc2nc(-c3ccc([18F])cc3)sc2c1" records Drug uptake of 6% or higher.
Result: no (0)

Task: Test whether the molecule "Cc1ccc2nc(-c3ccc([18F])cc3)sc2c1" records Drug uptake of 6% or higher.
Result: no (0)

Task: Test whether the molecule "Nc1ccc2nc(-c3ccc([18F])cc3)sc2c1" records Drug uptake of 6% or higher.
Result: yes (1)

---

Test system: Liver
Assay: Biodistribution in NMRI mouse liver assessed per gram of tissue at 3.7 MBq/mL, iv after 60 mins by gamma counting
Format: ADME, organism-based
Details: in vivo, 1 h
Recorded measurements of Drug uptake, one per entry
// units = %; emit number, no label

CNc1ccc2nc(-c3ccc([18F])cc3)sc2c1; 8.3
Cc1ccc2nc(-c3ccc([18F])cc3)sc2c1; 24.6

Task: Provide Drug uptake, recorded with Liver, of "Nc1ccc2nc(-c3ccc([18F])cc3)sc2c1"
Result: 5.6

Task: Provide Drug uptake, recorded with Liver, of "[11CH3]Nc1ccc(-c2nc3ccc(O)cc3s2)cc1"
Result: 5

Task: Provide Drug uptake, recorded with Liver, of "CN(C)c1ccc2nc(-c3ccc([18F])cc3)sc2c1"
Result: 8

---

System: Heart
Assay: Biodistribution in NMRI mouse heart assessed per gram of tissue at 3.7 MBq/mL, iv after 2 mins by gamma counting
Format: ADME, organism-based
Details: in vivo
// label = condition met if Drug uptake is not less than 5%, otherwise condition not met

Use these answered entries as a reference point.
CN(C)c1ccc2nc(-c3ccc([18F])cc3)sc2c1; condition met
Cc1ccc2nc(-c3ccc([18F])cc3)sc2c1; condition met
[11CH3]Nc1ccc(-c2nc3ccc(O)cc3s2)cc1 [PITTSBURGH COMPOUND B]; condition not met

Task: Test whether the compound "CNc1ccc2nc(-c3ccc([18F])cc3)sc2c1" records Drug uptake of 5% or higher.
Result: condition met

Task: Test whether the compound "Nc1ccc2nc(-c3ccc([18F])cc3)sc2c1" records Drug uptake of 5% or higher.
Result: condition met

---

Tested on: Stomach
Experiment: Biodistribution in NMRI mouse stomach at 3.7 MBq/mL, iv after 2 mins by gamma counting
Type: ADME, organism-based
Settings: in vivo
// label = yes if Drug uptake is not less than 2%, otherwise no

Use these answered entries as a reference point.
CN(C)c1ccc2nc(-c3ccc([18F])cc3)sc2c1; no
[11CH3]Nc1ccc(-c2nc3ccc(O)cc3s2)cc1; no
Nc1ccc2nc(-c3ccc([18F])cc3)sc2c1; no
Cc1ccc2nc(-c3ccc([18F])cc3)sc2c1; no

Next item in the queue.
Task: Test whether the molecule "CNc1ccc2nc(-c3ccc([18F])cc3)sc2c1" records Drug uptake of 2% or higher.
Result: yes

---

Experiment: Drug level in NMRI mouse spleen/pancreas assessed as standard uptake value at 3.7 MBq/mL, iv after 2 mins by gamma counting
Type: ADME, organism-based
Details: in vivo
Recorded measurements of SUV, one per entry
A bare number is all that is needed in reply.

Nc1ccc2nc(-c3ccc([18F])cc3)sc2c1; 2.2
CNc1ccc2nc(-c3ccc([18F])cc3)sc2c1; 2
CN(C)c1ccc2nc(-c3ccc([18F])cc3)sc2c1; 2

Proceeding to the next compound to report its SUV.
Task: State its SUV for this compound: "Cc1ccc2nc(-c3ccc([18F])cc3)sc2c1"
Result: 1.5
